Test system: Wolbachia pipientis
METHOD DESCRIPTION: Anti-Wolbachia Cell-Based Screen
Type: functional
Set-up: scale not given: in the data most compounds retested in dose-response had high values
PROTOCOL CONDITIONS: 5 µM
Among all 48,000 compounds or so, about 13,000 (27%) showed an effect of 50% or more. Some of the results follow.
MEASUREMENT TYPE: Percent Effect (%)
Quick note: give the figure in %, leave out the unit.

# example entries with known answers
[
  {
    "SMILES NOTATION": "Cc1noc(C)c1CN1C[C@@H]2CN(C(=O)c3cscn3)C[C@@H]2C1",
    "Percent Effect / %": -4.527
  },
  {
    "SMILES NOTATION": "Cc1noc(C)c1CN1CC[C@@H]2O[C@@H](COCC(C)C)CC[C@@H]21.O=C(O)C(F)(F)F",
    "Percent Effect / %": -18.54
  },
  {
    "SMILES NOTATION": "Cc1noc(C)c1CN1C[C@@H]2CN(C(=O)c3cnccn3)C[C@@H]2C1.O=C(O)C(F)(F)F",
    "Percent Effect / %": 12.22
  },
  {
    "SMILES NOTATION": "Cc1noc(C)c1CN1C[C@H](OCC2CC2)[C@H]2COC[C@H]21.O=C(O)C(F)(F)F",
    "Percent Effect / %": -11.17
  },
  {
    "SMILES NOTATION": "Cc1cccc(CN2CCO[C@H]3[C@H](Oc4ccccn4)CC[C@@H]32)n1.O=C(O)C(F)(F)F.O=C(O)C(F)(F)F.O=C(O)C(F)(F)F",
    "Percent Effect / %": -5.124
  },
  {
    "SMILES NOTATION": "Cc1noc(C)c1CN1C[C@@H]2C[C@H](C(=O)NCC3CC3)N(C)[C@@H]2C1.O=C(O)C(F)(F)F.O=C(O)C(F)(F)F",
    "Percent Effect / %": 97.39
  }
]

Enquiry: Sample Cc1noc(C)c1CN1C[C@H](OCC(=O)N(C)C)[C@H]2COC[C@H]21.O=C(O)C(F)(F)F — what was its Percent Effect?
Return: -5.936

###

Test system: Wolbachia pipientis
METHOD DESCRIPTION: Anti-Wolbachia Cell-Based Screen
Type: functional
Set-up: scale not given: in the data most compounds retested in dose-response had high values
PROTOCOL CONDITIONS: 5 µM
The campaign covered roughly 48,000 compounds. About 13,000 (27%) showed an effect of 50% or more. Some of the results follow.
MEASUREMENT TYPE: Percent Effect (%)
Express the result in % but write the number alone.

[
  {
    "COMPOUND": "CN(C)CCN1C(=O)C2(CCN(CC3CC3)CC2)c2ccccc21.O=C(O)C(F)(F)F.O=C(O)C(F)(F)F",
    "SYSTEM NAME": "Wolbachia pipientis",
    "UNIT LABEL": "%",
    "Percent Effect": 113.1
  },
  {
    "COMPOUND": "CN1CCC(N(C)c2ccccc2CNCc2ccco2)CC1",
    "SYSTEM NAME": "Wolbachia pipientis",
    "UNIT LABEL": "%",
    "Percent Effect": 13.84
  },
  {
    "COMPOUND": "CCc1ccc(OCC(=O)N2CCN(CC)CC2)cc1",
    "SYSTEM NAME": "Wolbachia pipientis",
    "UNIT LABEL": "%",
    "Percent Effect": -2.93
  },
  {
    "COMPOUND": "COCCNc1nc2c(c(NCc3cnc(C)c(C)c3)n1)CCNCC2",
    "SYSTEM NAME": "Wolbachia pipientis",
    "UNIT LABEL": "%",
    "Percent Effect": 2.827
  },
  {
    "COMPOUND": "CC(C)NC(=O)N1CCOC2(CCCNC2)C1 (stereo unspecified)",
    "SYSTEM NAME": "Wolbachia pipientis",
    "UNIT LABEL": "%",
    "Percent Effect": -11.25
  }
]

Enquiry: Provide value of Percent Effect for this record tested with Wolbachia pipientis: CN1CCN(C(=O)Cc2csc(-c3ccsc3)n2)C(c2ccccc2)C1 (stereo unspecified)
Return: -6.196

Enquiry: Form: Entry = CCOc1ncccc1C(=O)N1CCN(C)C2(CCN(C)CC2)C1 | System = Wolbachia pipientis | Percent Effect = ____
Return: -9.489

Enquiry: Give Percent Effect (Wolbachia pipientis) of the following compound: Cc1cc(N2CCC(NC(C)Cc3ccsc3)CC2)nc(C)n1 (stereo unspecified)
Return: 1.122

###

Reported Percent Effect values follow for various compounds
Tested on: Wolbachia pipientis
METHOD DESCRIPTION: Anti-Wolbachia Cell-Based Screen
Type: functional
Design: scale not given: in the data most compounds retested in dose-response had high values
PROTOCOL CONDITIONS: 5 µM
Out of some 48,000 compounds screened, about 13,000 (27%) showed an effect of 50% or more. Some of the results follow.
Quick note: give the figure in %, leave out the unit.

Past entries and their recorded results:
[
  {
    "COMPOUND": "Cc1ccc(CN2C[C@@H]3CN(c4ncc(F)cn4)C[C@@H]3C2)cc1.O=C(O)C(F)(F)F",
    "OBS VALUE": 6.106
  },
  {
    "COMPOUND": "COCCN1CCOCC2(C1)CN(C(=O)c1conc1C)CCO2.O=C(O)C(F)(F)F (centres undefined)",
    "OBS VALUE": 91.15
  },
  {
    "COMPOUND": "Cc1noc(C)c1C(=O)N1CCC2(CC1)c1nc[nH]c1CCN2C",
    "OBS VALUE": 14.77
  },
  {
    "COMPOUND": "Cc1noc(C)c1CN1CCOC2(CCCN(c3nncs3)C2)C1.O=C(O)C(F)(F)F (centres undefined)",
    "OBS VALUE": -6.2
  },
  {
    "COMPOUND": "CC(C)CN1C[C@H]2C[C@H](C(=O)NCc3cccnc3)[C@@H](C1)O2",
    "OBS VALUE": -10.23
  }
]

Enquiry: # get_value(readout= Percent Effect, system= Wolbachia pipientis) for CCOC[C@H]1CC[C@H]2[C@H](CCN2Cc2c(C)noc2C)O1.O=C(O)C(F)(F)F
Return: 4.615

Enquiry: Find the measured Percent Effect: item COCCN1C[C@@H](C)[C@@]2(COCCN(C(=O)c3ccno3)C2)C1.O=C(O)C(F)(F)F , target or system Wolbachia pipientis.
Return: 2.349

Enquiry: Form: Entry = O=C(O)CC(O)(CC(=O)O)C(=O)O.O[C@@]1(c2ccccn2)CC[C@H]2CN(Cc3cccc(Cl)c3Cl)C[C@H]21 | System = Wolbachia pipientis | Percent Effect = ____
Return: -2.173

Enquiry: What Percent Effect appears in the records for this compound with Wolbachia pipientis? CC(C)(C)c1cc(=O)[nH]c(C2(N)CCCC2)n1
Return: 3.211

###

System: Wolbachia pipientis
METHOD DESCRIPTION: Anti-Wolbachia Cell-Based Screen
Assay type: functional
Design: scale not given: in the data most compounds retested in dose-response had high values
PROTOCOL CONDITIONS: 5 µM
About 13,000 (27%) of roughly 48,000 compounds showed an effect of 50% or more. The list shows a part of the results.
MEASUREMENT TYPE: Percent Effect (%)
Give the quantity in %, number only.

The examples below pair each entry with its known result.
[
  {
    "COMPOUND": "CCS(=O)(=O)N1CCN(CC2CC2)c2ncccc2C1",
    "UNIT LABEL": "%",
    "OBS VALUE": 115
  },
  {
    "COMPOUND": "O=C(Nc1ccccc1)C1=NOC2(CCCNC2)C1 (stereo unspecified)",
    "UNIT LABEL": "%",
    "OBS VALUE": -15.15
  }
]

Enquiry: # get_value(readout='Percent Effect', item= Cc1cccc(CN2C[C@@H]3CN(Cc4ccoc4)CCO[C@@H]3C2)n1.O=C(O)C(F)(F)F.O=C(O)C(F)(F)F.O=C(O)C(F)(F)F )
Return: -28.06

Enquiry: For CN(C)c1nccc(N(C)C2CCN(CC3CCOC3)CC2)n1 (stereo unspecified) , what is its reported Percent Effect?
Return: -1.947

Enquiry: Item under review: CS(=O)(=O)c1ccc(CC(=O)N2CCN3CCNC(=O)C3C2)cc1 (stereo unspecified) . Reported Percent Effect?
Return: -12.31

Enquiry: Fill in: Percent Effect of CC(C)N1CCOC(c2ccnc(N(C)C)n2)C1 (stereo unspecified) is ___
Return: 82.78

Enquiry: Give the measured Percent Effect of CCCN1CC2(CCN(c3ncc(F)cn3)CC2)CC1C(=O)O (stereo unspecified) .
Return: 2.005

###

In this section, each of the molecules is paired with its reported Percent Effect.
System: Wolbachia pipientis
METHOD DESCRIPTION: Anti-Wolbachia Cell-Based Screen
Assay type: functional
Parameters: scale not given: in the data most compounds retested in dose-response had high values
PROTOCOL CONDITIONS: 5 µM
The whole screen tested about 48,000 compounds, of which about 13,000 (27%) showed an effect of 50% or more. This is one part of the list.
Quick reminder: number only, in %, skip the unit.

Look over these answered cases.
[
  {
    "MOLECULE": "O=C(CSc1ccccn1)N1CCN(CCO)[C@@H]2CS(=O)(=O)C[C@@H]21",
    "Percent Effect (%)": -2.402
  },
  {
    "MOLECULE": "Cc1ccccc1CNCC(O)c1ccc(OC(C)C)cc1 (stereo not given)",
    "Percent Effect (%)": 14.53
  },
  {
    "MOLECULE": "COCCCN1CCCC12CCN(c1ncccn1)CC2.O=C(O)C(F)(F)F",
    "Percent Effect (%)": 8.313
  },
  {
    "MOLECULE": "COCC1CC2(CCN(c3ccccn3)CC2)CN1C(C)C.O=C(O)C(F)(F)F.O=C(O)C(F)(F)F (stereo not given)",
    "Percent Effect (%)": 104.7
  },
  {
    "MOLECULE": "CN1CCN2C(=O)N(C3CCOCC3)C[C@H]2C1",
    "Percent Effect (%)": -7.245
  },
  {
    "MOLECULE": "COCC1CC2(CCN(c3ccc(C)nn3)CC2)CN1C(C)C.O=C(O)C(F)(F)F (stereo not given)",
    "Percent Effect (%)": 99.94
  },
  {
    "MOLECULE": "Cc1cc(C(F)(F)F)nc(N2CCN3CCCC3C2)n1 (stereo not given)",
    "Percent Effect (%)": 105
  },
  {
    "MOLECULE": "CN(C)C(=O)CN1CCCC2(CCN(c3ccc(C#N)cn3)C2)C1.O=C(O)C(F)(F)F (stereo not given)",
    "Percent Effect (%)": -7.726
  }
]

Enquiry: // lookup Percent Effect | system=Wolbachia pipientis | key= CC(Cc1c(F)cccc1F)NC(=O)CN(CC(N)=O)C(C)C (stereo not given)
Return: 2.304

Enquiry: So what Percent Effect did NC1(c2nc(-c3cccs3)cc(=O)[nH]2)CCCCC1 get with Wolbachia pipientis?
Return: -5.956
